Study system: T1, human MerTK (human, UniProt Q12866 26-499)
T1 construct: also called HuMER
T1 sequence: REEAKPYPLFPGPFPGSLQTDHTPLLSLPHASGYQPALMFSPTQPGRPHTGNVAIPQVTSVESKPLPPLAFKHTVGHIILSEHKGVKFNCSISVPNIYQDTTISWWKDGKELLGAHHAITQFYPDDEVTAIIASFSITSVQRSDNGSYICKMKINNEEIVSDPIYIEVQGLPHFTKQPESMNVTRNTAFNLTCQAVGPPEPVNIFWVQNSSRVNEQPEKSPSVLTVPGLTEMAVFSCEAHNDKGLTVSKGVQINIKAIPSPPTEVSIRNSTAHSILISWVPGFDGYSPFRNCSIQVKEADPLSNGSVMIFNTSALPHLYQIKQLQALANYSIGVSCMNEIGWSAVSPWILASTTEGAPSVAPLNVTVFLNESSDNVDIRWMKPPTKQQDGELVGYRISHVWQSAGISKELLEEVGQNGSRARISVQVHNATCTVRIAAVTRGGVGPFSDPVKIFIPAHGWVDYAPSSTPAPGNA
Protocol notes: SPR BIAcore T200, Ab captured, 37C
Description: Each humanized mutation variant was subject to BIAcore analysis to determine the important rabbit residues for binding and stability. […] Association rates (kₒₙ) and dissociation rates (koff) were calculated using a simple one-to-one Langmuir binding model (BIAcore T200 evaluation software version 2.0). The equilibrium dissociation constant (KD) was calculated as the ratio koff/kₒₙ.
pKd: −log10 of the molar value.
Quantity: pKd

[
  {
    "Binder": "h10C3.V1 HC V78L (antibody, human IgG1, name in Kabat numbering, V domains shown, Framework variant of h10C3.v1 (human IgG1)) VH: EQQLVESGGGLVQPGGSLRLSCAASGFSLSGYTMGWVRQAPGKGLEYIGVISSGGTTYYTNWAKGRFTISKDSSKNTLYLQMGSLRAEDMAVYFCARVAFTAYGGGGFPTLHRLDLWGQGTLVTVSS VL: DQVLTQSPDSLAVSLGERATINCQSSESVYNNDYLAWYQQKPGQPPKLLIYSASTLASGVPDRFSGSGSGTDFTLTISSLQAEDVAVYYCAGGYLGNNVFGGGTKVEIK",
    "Observed": 8.13
  },
  {
    "Binder": "h13B4.V1 HC F91Y (antibody, name in Kabat numbering, V domains shown, Framework variant of h13B4.v1 (human IgG1)) VH: EQQLVESGEGLVQPGGSLRLSCAVSGFSLSSYAMGWVRQAPGKGLEWIGIINSYGNTYYANWAKGRFTISRDSSKNTVYLQMGSLRAEDMAVYYCARDPGVSSNLWGPGTLVTVSS VL: DVQMTQSPSTLSASVGDRVTITCQASQNIYSGLAWYQQKPGKPPKLLIYGASKLASGVPSRFSGSGSGTEFTLTISSLQPDDFATYYCQATYYSSNSVAFGGGTKVEIK",
    "Observed": 8.35
  }
]
